So I've got a bunch of molecules here, and I need their relative viability values.
system: EKVX; assay: relative viability (nuclei count vs DMSO), 5 days (fraction); higher = more cells survive; settings: first compound 1.265 µM
One number for each entry.

Below: 5 molecules and their reported relative viability.
{"molecule": "Clc1ccc(Nc2nnc(Cc3ccncc3)c3ccccc23)cc1 [Vatalanib] + CC(=O)c1c(C)c2cnc(Nc3ccc(N4CCNCC4)cn3)nc2n(C2CCCC2)c1=O [Palbociclib] (partner 0.5 µM)", "relative viability": 0.375}
{"molecule": "Clc1ccc(Nc2nnc(Cc3ccncc3)c3ccccc23)cc1 [Vatalanib] + O=C(CCCCCCC(=O)Nc1ccccc1)NO [Vorinostat] (partner 1 µM)", "relative viability": 0.655}
{"molecule": "Clc1ccc(Nc2nnc(Cc3ccncc3)c3ccccc23)cc1 [Vatalanib] + Nc1ncn([C@H]2C[C@H](O)[C@@H](CO)O2)c(=O)n1 [Decitabine] (partner 2 µM)", "relative viability": 0.338}
{"molecule": "Clc1ccc(Nc2nnc(Cc3ccncc3)c3ccccc23)cc1 [Vatalanib] + Nc1nc2[nH]cc(CCc3ccc(C(=O)N[C@@H](CCC(=O)O)C(=O)O)cc3)c2c(=O)[nH]1 [Pemetrexed] (partner 0.2 µM)", "relative viability": 0.339}
{"molecule": "Clc1ccc(Nc2nnc(Cc3ccncc3)c3ccccc23)cc1 [Vatalanib] + CC(C)C[C@H](NC(=O)[C@H](Cc1ccccc1)NC(=O)c1cnccn1)B(O)O [Bortezomib] (partner 0.002 µM)", "relative viability": 0.984}

Could you now look at the following molecule, please?
Tell me its relative viability given Clc1ccc(Nc2nnc(Cc3ccncc3)c3ccccc23)cc1 [Vatalanib] + Cc1nc(NC(=O)N2CCC[C@H]2C(N)=O)sc1-c1ccnc(C(C)(C)C(F)(F)F)c1 [Alpelisib] (partner 2 µM) as the entry.
0.829
